- experimental.target: Adrenergic receptor alpha
- measurement.notes: Inhibition of [3H]WB-4101 binding to alpha adrenergic receptor from rat cerebral cortical membranes
- Type: cell membranes, Membrane
Threshold check on Ki: strictly below 10 µM is TRUE; on or above 10 µM is FALSE.

> print(dat)
                                    compound  answer.label
 1    Oc1ccc(C[C@@H]2NCCc3cc(O)c(O)cc32)cc1O          TRUE
 2  Oc1ccc(CC2NCCc3cc(O)c(O)cc32)cc1O (stereo not drawn)         FALSE
 3  O=C(O)C1(Cc2ccc(O)c(O)c2)NCCc2cc(O)c(O)cc21 (stereo not drawn)         FALSE
 4     Oc1ccc(C[C@H]2NCCc3cc(O)c(O)cc32)cc1O         FALSE
 5  Oc1cc(Br)c(CC2NCCc3cc(O)c(O)cc32)cc1O (stereo not drawn)          TRUE
 6  COc1ccc(CC2NCCc3cc(OC)c(O)cc32)cc1O (stereo not drawn)          TRUE
 7  COc1ccc(C[C@@H]2NCCc3cc(OC)c(O)cc32)cc1O          TRUE
 8  COc1cc2c(cc1O)C(Cc1ccc(O)c(O)c1)NCC2 (stereo not drawn)          TRUE
 9  COc1cc(CC2(C(=O)O)NCCc3cc(O)c(O)cc32)ccc1O (stereo not drawn)         FALSE
10  COc1cc(CC2NCCc3cc(O)c(O)cc32)ccc1O (stereo not drawn)          TRUE

Origin of values: ChEMBL document CHEMBL1121453
